Tested on: E. coli Ebara
Experiment: Antibacterial activity (MIC), E. coli Ebara
Format: cell-based
Details: Escherichia coli; E. coli Ebara; read-out: MIC (minimum effective inhibitory concentration)
From the text: Antibacterial activities (minimum effective inhibitory concentrations) of the compounds of formula I are shown in the following table in comparison with those of cefatazidime having the structure [drawing 5] and cefmenoxime having the structure [drawing 6]
Counter-ions that a name gives are not always drawn.
Strictly below 2 µg/mL in MIC: criterion met. Otherwise: criterion not met.

### Prompt Quick check: does Nc1nc(CO/N=C(\C(=O)NC2C(=O)N3C(C(=O)[O-])=C(C[n+]4ccccc4)CSC23)c2csc(N)n2)cs1 (stereo not drawn) [Example 8] have MIC under 2 µg/mL?
### Response criterion met

### Prompt Same again, this time with CC1=C(C(=O)O)N2C(=O)C(NC(=O)/C(=N\OCc3csc(N)n3)c3csc(N)n3)[C@H]2SC1 (stereo partly drawn) [1(b)]
### Response criterion met

### Prompt Here is the next molecule: Nc1nc(CO/N=C(\C(=O)NC2C(=O)N3C(C(=O)[O-])=C(C[n+]4ccccn4)CSC23)c2csc(N)n2)cs1 (stereo not drawn) [Example 7]
### Response criterion met

### Prompt // next record Cn1nnnc1SCC1=C(C(=O)O)N2C(=O)C(NC(=O)/C(=N\OCc3csc(N)n3)c3csc(N)n3)C2SC1 (stereo not drawn) [Example 6]
### Response criterion met

### Prompt Thanks! And CO/N=C(\C(=O)N[C@@H]1C(=O)N2C(C(=O)O)=C(CSc3nnnn3C)CS[C@H]12)c1csc(N)n1 [CX, Cefmenoxime, reference compound] ?
### Response criterion met

### Prompt Now consider Nc1nc(CO/N=C(\C(=O)NC2C(=O)N3C(C(=O)[O-])=C(C[n+]4cccc(CC(=O)O)c4)CSC23)c2csc(N)n2)cs1 (stereo not drawn) [Example 12, mono-sodium salt] .
### Response criterion met

### Prompt Param item: Nc1nc(CO/N=C(\C(=O)NC2C(=O)N3C(C(=O)[O-])=C(C[n+]4cccc(S(=O)(=O)O)c4)CSC23)c2csc(N)n2)cs1 (stereo not drawn) [Example 17, mono-sodium salt]
### Response criterion not met

### Prompt Thanks! And Cn1nc(O)c(=O)nc1SCC1=C(C(=O)O)N2C(=O)C(NC(=O)/C(=N\OCc3csc(N)n3)c3csc(N)n3)[C@H]2SC1 (stereo partly drawn) [Example 5] ?
### Response criterion met

### Prompt # repeat for Nc1nc(CO/N=C(\C(=O)NC2C(=O)N3C(C(=O)[O-])=C(C[n+]4cccc(CNC=O)c4)CS[C@H]23)c2csc(N)n2)cs1 (stereo partly drawn) [Example 22]
### Response criterion met

### Prompt Please give the result for NC(=O)c1cc[n+](CC2=C(C(=O)[O-])N3C(=O)C(NC(=O)/C(=N\OCc4csc(N)n4)c4csc(N)n4)C3SC2)cc1 (stereo not drawn) [Example 9] too.
### Response criterion met

### Prompt # iterate: Nc1nc(CO/N=C(\C(=O)NC2C(=O)N3C(C(=O)[O-])=C(C[n+]4cccc(C(=O)O)c4)CSC23)c2csc(N)n2)cs1 (stereo not drawn) [Example 13]
### Response criterion not met

### Prompt Now try CC(=O)OCC1=C(C(=O)O)N2C(=O)C(NC(=O)/C(=N\OCc3csc(N)n3)c3csc(N)n3)[C@H]2SC1 (stereo partly drawn) [2(b)] .
### Response criterion met

### Prompt Next up: Nc1ccc[n+](CC2=C(C(=O)[O-])N3C(=O)C(NC(=O)/C(=N\OCc4csc(N)n4)c4csc(N)n4)[C@H]3SC2)c1 (stereo partly drawn) [Example 19]
### Response criterion met

### Prompt Would you kindly repeat that for Nc1nc(CON=C(C(=O)NC2C(=O)N3C(C(=O)[O-])=C(C[n+]4ccc(C(=O)NO)cc4)CS[C@H]23)c2csc(N)n2)cs1 (stereo partly drawn) [Example 23] ?
### Response criterion met

### Prompt Next record, please: Nc1cc[n+](CC2=C(C(=O)[O-])N3C(=O)C(NC(=O)/C(=N\OCc4csc(N)n4)c4csc(N)n4)[C@H]3SC2)cc1 (stereo partly drawn) [Example 21]
### Response criterion met

### Prompt Then what about the molecule Nc1nc(CO/N=C(\C(=O)NC2C(=O)N3C(C(=O)[O-])=C(C[n+]4ccc(C(=O)O)cc4)CSC23)c2csc(N)n2)cs1 (stereo not drawn) [Example 14] ?
### Response criterion not met

### Prompt Repeat for the following molecule: Nc1nc(CO/N=C(\C(=O)NC2C(=O)N3C(C(=O)[O-])=C(C[n+]4cccc(C(=O)NCC(=O)O)c4)CSC23)c2csc(N)n2)cs1 (stereo not drawn) [Example 20, mono-sodium salt]
### Response criterion not met

### Prompt Could you do the same for Nc1nc(CO/N=C(\C(=O)NC2C(=O)N3C(C(=O)[O-])=C(C[n+]4cccc(NC=O)c4)CS[C@H]23)c2csc(N)n2)cs1 (stereo partly drawn) [Example 18] , please?
### Response criterion met

### Prompt Similarly, Nc1nc(CO/N=C(\C(=O)NC2C(=O)N3C(C(=O)[O-])=C(C[n+]4cccc(O)c4)CS[C@H]23)c2csc(N)n2)cs1 (stereo partly drawn) [Example 16] ?
### Response criterion met

### Prompt Moving on to the next molecule: Nc1nc(CO/N=C(\C(=O)NC2C(=O)N3C(C(=O)[O-])=C(C[n+]4ccc(CO)cc4)CS[C@H]23)c2csc(N)n2)cs1 (stereo partly drawn) [Example 15]
### Response criterion met

### Prompt Continue with CSC1=C(C(=O)O)N2C(=O)C(NC(=O)/C(=N\OCc3csc(N)n3)c3csc(N)n3)[C@H]2SC1 (stereo partly drawn) [3(b)]
### Response criterion not met

====

system: Ps. aeruginosa NCTC 10490; experiment: Antibacterial activity (MIC), Ps. aeruginosa NCTC 10490; format: cell-based; conditions: Pseudomonas aeruginosa, NCTC10490, read-out: MIC (minimum effective inhibitory concentration)
Structures can show the parent of a compound that is named as a salt.
endpoint: MIC (µg/mL)
Your answer is read as µg/mL, so omit the unit and give the number.

### Prompt # input molecule: Nc1nc(CO/N=C(\C(=O)NC2C(=O)N3C(C(=O)[O-])=C(C[n+]4cccc(CC(=O)O)c4)CSC23)c2csc(N)n2)cs1 (stereo not shown) [Example 12, mono-sodium salt] ; wanted: its MIC
### Response 1.56

### Prompt Now the molecule CC1=C(C(=O)O)N2C(=O)C(NC(=O)/C(=N\OCc3csc(N)n3)c3csc(N)n3)[C@H]2SC1 (stereo partly shown)
### Response 6.25

### Prompt One more molecule: Nc1nc(CON=C(C(=O)NC2C(=O)N3C(C(=O)[O-])=C(C[n+]4ccc(C(=O)NO)cc4)CS[C@H]23)c2csc(N)n2)cs1 (stereo partly shown)
### Response 0.39

### Prompt Try this molecule next: CC(=O)OCC1=C(C(=O)O)N2C(=O)C(NC(=O)/C(=N\OCc3csc(N)n3)c3csc(N)n3)[C@H]2SC1 (stereo partly shown)
### Response 0.39

### Prompt Field entry: Nc1nc(CO/N=C(\C(=O)NC2C(=O)N3C(C(=O)[O-])=C(C[n+]4cccc(C(=O)NCC(=O)O)c4)CSC23)c2csc(N)n2)cs1 (stereo not shown) [Example 20, mono-sodium salt]
### Response 1.56

### Prompt Queued: Nc1nc(CO/N=C(\C(=O)NC2C(=O)N3C(C(=O)[O-])=C(C[n+]4cccc(NC=O)c4)CS[C@H]23)c2csc(N)n2)cs1 (stereo partly shown)
### Response 0.39

### Prompt Also check CSC1=C(C(=O)O)N2C(=O)C(NC(=O)/C(=N\OCc3csc(N)n3)c3csc(N)n3)[C@H]2SC1 (stereo partly shown)
### Response 1.56

### Prompt Now consider Nc1nc(CO/N=C(\C(=O)NC2C(=O)N3C(C(=O)[O-])=C(C[n+]4cccc(CNC=O)c4)CS[C@H]23)c2csc(N)n2)cs1 (stereo partly shown) and answer again.
### Response 1.56

### Prompt Proceed to Nc1nc(CO/N=C(\C(=O)NC2C(=O)N3C(C(=O)[O-])=C(C[n+]4ccc(C(=O)O)cc4)CSC23)c2csc(N)n2)cs1 (stereo not shown)
### Response 0.39

### Prompt What do you get for Nc1cc[n+](CC2=C(C(=O)[O-])N3C(=O)C(NC(=O)/C(=N\OCc4csc(N)n4)c4csc(N)n4)[C@H]3SC2)cc1 (stereo partly shown) ?
### Response 0.39

====

Would you kindly list MIC for each of these compounds?
tested on: Ps. aeruginosa NCTC 10490; assay: Antibacterial activity (MIC), Ps. aeruginosa NCTC 10490; type: cell-based; conditions: Pseudomonas aeruginosa, NCTC10490, read-out: MIC (minimum effective inhibitory concentration)
Counter-ions that a name gives are not always drawn.
API: value field is a number in µg/mL; no unit string.

### Prompt For CC(C)(O/N=C(\C(=O)N[C@@H]1C(=O)N2C(C(=O)[O-])=C(C[n+]3ccccc3)CS[C@H]12)c1csc(N)n1)C(=O)O [CD, Ceftazidime, reference compound] , what is its reported MIC?
### Response 0.78

### Prompt Request: Nc1nc(CO/N=C(\C(=O)NC2C(=O)N3C(C(=O)[O-])=C(C[n+]4cccc(S(=O)(=O)O)c4)CSC23)c2csc(N)n2)cs1 (stereo not drawn) [Example 17, mono-sodium salt]
### Response 1.56

### Prompt Now try CO/N=C(\C(=O)N[C@@H]1C(=O)N2C(C(=O)O)=C(CSc3nnnn3C)CS[C@H]12)c1csc(N)n1 [CX, Cefmenoxime, reference compound] .
### Response 1.56

Sourced from patent US4608373A
